ASSAYED_SYSTEM: T1, recombinant human IL-6 (human, UniProt P05231 30-212, labeled with radioactive iodine)
T1 construct: Labeled probe in solution, added to wells that carry the synthetic peptides; also called IL-6 ligand; Interleukin-6
EXPERIMENT_NOTES: radioiodinated IL-6 on peptide array
MEASURED_METRIC: Counts/minute bound
Param answer (str): number followed by unit.

ISSSDENESSQNTSSTVQYSTVVH [Peptide E75] = 1120 counts/minute

Name the recorded Counts/minute bound for SHIAQWSPHTPPRHNFNSKDQMYS [Peptide E67] . 1200 counts/minute

Name the recorded Counts/minute bound for MLTLQTWVVQALFIFLTTESTGEL [Peptide E1] . 3360 counts/minute

Name the recorded Counts/minute bound for GKILDYEVTLTRWKSHLQNYTVNA [Peptide E37] . 1790 counts/minute
